- experimental-system: Neutrophil elastase (Homo sapiens, UniProt P08246)
- Sequence (P08246 whole entry): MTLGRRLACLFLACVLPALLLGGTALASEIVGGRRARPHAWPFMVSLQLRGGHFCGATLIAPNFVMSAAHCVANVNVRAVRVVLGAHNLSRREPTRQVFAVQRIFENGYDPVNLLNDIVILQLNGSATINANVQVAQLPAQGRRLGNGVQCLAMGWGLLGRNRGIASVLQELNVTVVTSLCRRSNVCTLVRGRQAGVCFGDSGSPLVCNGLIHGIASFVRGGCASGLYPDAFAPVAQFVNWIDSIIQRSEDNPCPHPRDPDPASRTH
- measurement-notes: Tested for rate of substrate hydrolysis in the presence of human neutrophil elastase
endpoint-name: pKi
Here pKi is given on a logarithmic scale as minus log10 of the concentration in mol/L.

{"compound": "COC(=O)CCC(=O)N[C@@H](C)C(=O)N[C@@H](C)C(=O)N1CCC[C@H]1C(=O)N[C@H](C(=O)C(=O)OC)C(C)C", "pKi": 6.70}

Please turn your attention to the following entry.
Any idea what its pKi is? The compound is COC(=O)C(=O)[C@@H](NC(=O)C1CCCN1C(=O)[C@H](C)NC(=O)[C@H](C)NC(=O)c1ccc(C(=O)NS(=O)(=O)c2ccc(Cl)cc2)cc1)C(C)C (some centres not stated) 8.70
